- assay target: PDGFRβ (Ba/F3-Tel-PDGFRβ) (Homo sapiens)
- Construct: the other entry of the earlier key: ETV6 (P41212, Transcription factor ETV6)
- Sequence (P09619 600-962 limits assumed): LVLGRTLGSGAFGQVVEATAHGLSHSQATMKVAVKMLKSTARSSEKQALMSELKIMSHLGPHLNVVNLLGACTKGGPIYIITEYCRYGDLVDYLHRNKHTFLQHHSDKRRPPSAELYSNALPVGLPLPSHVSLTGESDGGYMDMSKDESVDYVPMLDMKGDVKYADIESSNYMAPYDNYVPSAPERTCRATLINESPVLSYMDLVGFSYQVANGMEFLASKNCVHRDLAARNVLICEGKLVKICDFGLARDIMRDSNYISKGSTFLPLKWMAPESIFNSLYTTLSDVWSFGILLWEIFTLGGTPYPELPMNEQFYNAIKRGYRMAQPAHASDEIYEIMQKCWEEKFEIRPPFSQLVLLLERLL
- protocol summary: PDGFRβ cellular assay (Ba/F3-Tel-PDGFRβ proliferation)
- details: read-out: IC50 against PDGFRβ in the cellular assay
pIC50: −log10 of the molar value.
assay readout: pIC50

| smiles code | assay readout | numeric value |
| --- | --- | --- |
| Cc1cn(-c2cc(C(=O)Nc3ccc(C)c(Nc4nccn4-c4ncnc5[nH]ccc45)c3)cc(C(F)(F)F)c2)cn1 | pIC50 | 8.40 |

====

- assay target: wild type Bcr-abl (Ba/F3 cells) (Homo sapiens)
- Construct: the other entry of the earlier key: BCR (P11274, Breakpoint cluster region protein)
- Sequence (P00519 28-1130 limits assumed): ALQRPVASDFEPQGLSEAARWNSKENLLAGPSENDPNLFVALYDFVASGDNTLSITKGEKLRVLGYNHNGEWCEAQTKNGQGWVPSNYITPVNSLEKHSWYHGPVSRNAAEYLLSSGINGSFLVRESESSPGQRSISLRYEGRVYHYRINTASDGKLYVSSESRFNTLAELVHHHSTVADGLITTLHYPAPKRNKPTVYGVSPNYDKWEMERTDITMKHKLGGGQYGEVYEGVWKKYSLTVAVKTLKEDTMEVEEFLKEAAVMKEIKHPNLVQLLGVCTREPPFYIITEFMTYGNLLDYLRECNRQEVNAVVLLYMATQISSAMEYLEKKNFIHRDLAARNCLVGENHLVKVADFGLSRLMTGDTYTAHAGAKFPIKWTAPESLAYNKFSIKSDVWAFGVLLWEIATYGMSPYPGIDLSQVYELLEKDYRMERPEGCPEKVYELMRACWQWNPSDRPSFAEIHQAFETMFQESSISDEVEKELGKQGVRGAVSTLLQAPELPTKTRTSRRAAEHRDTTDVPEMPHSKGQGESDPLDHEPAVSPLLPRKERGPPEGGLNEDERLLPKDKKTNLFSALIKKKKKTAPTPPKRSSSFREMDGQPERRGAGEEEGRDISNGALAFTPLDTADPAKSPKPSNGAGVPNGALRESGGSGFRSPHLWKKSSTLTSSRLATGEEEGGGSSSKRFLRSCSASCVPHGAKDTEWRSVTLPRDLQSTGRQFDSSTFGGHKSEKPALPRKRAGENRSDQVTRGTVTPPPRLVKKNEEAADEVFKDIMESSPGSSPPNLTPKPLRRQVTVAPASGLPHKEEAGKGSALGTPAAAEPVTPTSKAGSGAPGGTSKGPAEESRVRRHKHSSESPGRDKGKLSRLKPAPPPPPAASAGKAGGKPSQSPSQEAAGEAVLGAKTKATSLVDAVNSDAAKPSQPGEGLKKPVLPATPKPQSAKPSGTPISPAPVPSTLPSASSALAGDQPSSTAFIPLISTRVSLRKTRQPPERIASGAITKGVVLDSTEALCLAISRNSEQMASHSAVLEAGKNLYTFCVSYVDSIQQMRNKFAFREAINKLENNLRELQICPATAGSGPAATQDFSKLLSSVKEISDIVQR
- protocol summary: Proliferation of Ba/F3 cells expressing wild type Bcr-abl

| smiles code | IC50 |
| --- | --- |
| Cc1cn(-c2cc(C(=O)Nc3ccc(C)c(Nc4nccn4-c4ncnc5[nH]ccc45)c3)cc(C(F)(F)F)c2)cn1 | < 0.5 nM |
